Provenance of the data: paper PMC10940605

System: SN12C
Assay: NCI-60 SRB screen
Assay type: cell-based
Details: Homo sapiens, 10^–5 Molar, read-out: Percent growth inhibition
Measured inhibition at 10 µM determines class: bottom: < 2%; middle: ≥ 2% and < 40%; top: ≥ 40%

>>> category_label("CCn1cc(C(=O)O)c(=O)c2cc(F)c(N3CCN(C(=O)c4ccc([N+](=O)[O-])cc4)C(C)C3)c(F)c21 (centres unmarked) [Compound 7d]")
"bottom"
>>> category_label("CCn1cc(C(=O)O)c(=O)c2cc(F)c(N3CCN(C(=O)c4ccc(Br)cc4)C(C)C3)c(F)c21 (centres unmarked) [Compound 7b]")
"bottom"
>>> category_label("CCn1cc(C(=O)O)c(=O)c2cc(F)c(N3CCN(C(=O)c4ccc(Cl)cc4)C(C)C3)c(F)c21 (centres unmarked) [Compound 7c]")
"middle"
>>> category_label("CCn1cc(C(=O)NN=Cc2cccs2)c(=O)c2cc(F)c(N3CCNC(C)C3)c(F)c21 (centres unmarked) [Compound 3e]")
"middle"
>>> category_label("CCn1cc(C(=O)O)c(=O)c2cc(F)c(N3CCN(CC(=O)Nc4ccc(Cl)cc4)C(C)C3)c(F)c21 (centres unmarked) [Compound 5b]")
"middle"
>>> category_label("CCn1cc(C(=O)NN=Cc2cccc(F)c2)c(=O)c2cc(F)c(N3CCNC(C)C3)c(F)c21 (centres unmarked) [Compound 3b]")
"top"
>>> category_label("CCn1cc(C(=O)NN=Cc2ccccc2)c(=O)c2cc(F)c(N3CCNC(C)C3)c(F)c21 (centres unmarked) [Compound 3a]")
"middle"
>>> category_label("CCn1cc(C(=O)NN=Cc2cccnc2)c(=O)c2cc(F)c(N3CCNC(C)C3)c(F)c21 (centres unmarked) [Compound 3d]")
"top"
>>> category_label("CCn1cc(C(=O)O)c(=O)c2cc(F)c(N3CCN(CC(=O)Nc4ccc(S(=O)(=O)Nc5ncccn5)cc4)C(C)C3)c(F)c21 (centres unmarked) [Compound 5e]")
"middle"
>>> category_label("CCn1cc(C(=O)NN=Cc2ccc(Br)cc2)c(=O)c2cc(F)c(N3CCNC(C)C3)c(F)c21 (centres unmarked) [Compound 3c]")
"top"

----------
Test system: NCI/ADR-RES
Experiment: NCI-60 SRB screen
Format: cell-based
Settings: Homo sapiens, 10^–5 Molar, read-out: Percent growth inhibition
We begin with a simple list: items and their reported inhibition at 10 µM.
PROPERTY_LABEL: inhibition at 10 µM (%)

>>> measured_number("CCn1cc(C(=O)NN=Cc2cccs2)c(=O)c2cc(F)c(N3CCNC(C)C3)c(F)c21 (centres unmarked)")
32.1
>>> measured_number("CCn1cc(C(=O)O)c(=O)c2cc(F)c(N3CCN(C(=O)c4ccc(Br)cc4)C(C)C3)c(F)c21 (centres unmarked)")
9.07
>>> measured_number("CCn1cc(C(=O)O)c(=O)c2cc(F)c(N3CCN(C(=O)c4ccccc4)C(C)C3)c(F)c21 (centres unmarked)")
20.4
>>> measured_number("CCn1cc(C(=O)O)c(=O)c2cc(F)c(N3CCN(C(=O)c4ccc(Cl)cc4)C(C)C3)c(F)c21 (centres unmarked)")
13.8
>>> measured_number("CCn1cc(C(=O)O)c(=O)c2cc(F)c(N3CCN(C(=O)c4ccc([N+](=O)[O-])cc4)C(C)C3)c(F)c21 (centres unmarked)")
3.34

----------
Tested on: BT-549
Experiment: NCI-60 SRB screen
Assay type: cell-based
Conditions: Homo sapiens; BT-549, 10^–5 Molar; read-out: Percent growth inhibition
Response key: satisfied means inhibition at 10 µM >= 20%; not satisfied means inhibition at 10 µM < 20%.

>>> category_label("CCn1cc(C(=O)NN=Cc2cccs2)c(=O)c2cc(F)c(N3CCNC(C)C3)c(F)c21 (stereo not drawn) [Compound 3e]")
"satisfied"
>>> category_label("CCn1cc(C(=O)NN=Cc2ccc(Br)cc2)c(=O)c2cc(F)c(N3CCNC(C)C3)c(F)c21 (stereo not drawn) [Compound 3c]")
"not satisfied"
>>> category_label("CCn1cc(C(=O)NN=Cc2cccc(F)c2)c(=O)c2cc(F)c(N3CCNC(C)C3)c(F)c21 (stereo not drawn) [Compound 3b]")
"not satisfied"
>>> category_label("CCn1cc(C(=O)O)c(=O)c2cc(F)c(N3CCN(CC(=O)Nc4ccc(OC)cc4)C(C)C3)c(F)c21 (stereo not drawn) [Compound 5c]")
"not satisfied"
>>> category_label("CCn1cc(C(=O)O)c(=O)c2cc(F)c(N3CCN(C(=O)c4ccccc4)C(C)C3)c(F)c21 (stereo not drawn) [Compound 7a]")
"not satisfied"
>>> category_label("CCn1cc(C(=O)NN=Cc2ccccc2)c(=O)c2cc(F)c(N3CCNC(C)C3)c(F)c21 (stereo not drawn) [Compound 3a]")
"satisfied"
>>> category_label("CCn1cc(C(=O)O)c(=O)c2cc(F)c(N3CCN(CC(=O)Nc4ccc(S(N)(=O)=O)cc4)C(C)C3)c(F)c21 (stereo not drawn) [Compound 5d]")
"not satisfied"
>>> category_label("CCn1cc(C(=O)NN=Cc2cccnc2)c(=O)c2cc(F)c(N3CCNC(C)C3)c(F)c21 (stereo not drawn) [Compound 3d]")
"satisfied"
>>> category_label("CCn1cc(C(=O)O)c(=O)c2cc(F)c(N3CCN(CC(=O)Nc4ccc(Cl)cc4)C(C)C3)c(F)c21 (stereo not drawn) [Compound 5b]")
"not satisfied"

----------
Test system: SK-OV-3
Assay: NCI-60 SRB screen
Assay type: cell-based
Details: Homo sapiens; SK-OV-3, 10^–5 Molar; read-out: Percent growth inhibition
We begin with a simple list: items and their reported inhibition at 10 µM.
PROPERTY_LABEL: inhibition at 10 µM (%)

>>> measured_number("CCn1cc(C(=O)O)c(=O)c2cc(F)c(N3CCN(C(=O)c4ccc(Cl)cc4)C(C)C3)c(F)c21 (stereo not drawn) [Compound 7c]")
2.14
>>> measured_number("CCn1cc(C(=O)NN=Cc2cccnc2)c(=O)c2cc(F)c(N3CCNC(C)C3)c(F)c21 (stereo not drawn) [Compound 3d]")
16.2
>>> measured_number("CCn1cc(C(=O)O)c(=O)c2cc(F)c(N3CCN(CC(=O)Nc4ccc(Cl)cc4)C(C)C3)c(F)c21 (stereo not drawn) [Compound 5b]")
9.6
>>> measured_number("CCn1cc(C(=O)O)c(=O)c2cc(F)c(N3CCN(CC(=O)Nc4ccccc4)C(C)C3)c(F)c21 (stereo not drawn) [Compound 5a]")
9.27
>>> measured_number("CCn1cc(C(=O)NN=Cc2cccs2)c(=O)c2cc(F)c(N3CCNC(C)C3)c(F)c21 (stereo not drawn) [Compound 3e]")
9.74
>>> measured_number("CCn1cc(C(=O)O)c(=O)c2cc(F)c(N3CCN(C(=O)c4ccc(Br)cc4)C(C)C3)c(F)c21 (stereo not drawn) [Compound 7b]")
1.83

----------
We begin with a simple list: items and their reported melting point.
PROPERTY_LABEL: melting point

>>> result("CCn1cc(C(=O)O)c(=O)c2cc(F)c(N3CCN(CC(=O)Nc4ccc(S(N)(=O)=O)cc4)C(C)C3)c(F)c21 (stereo not shown) [Compound 5d]")
"228 to 230 °C"
>>> result("CCn1cc(C(=O)NN=Cc2cccnc2)c(=O)c2cc(F)c(N3CCNC(C)C3)c(F)c21 (stereo not shown) [Compound 3d]")
"241 to 243 °C"
>>> result("CCn1cc(C(=O)O)c(=O)c2cc(F)c(N3CCN(C=O)C(C)C3)c(F)c21 (stereo not shown) [Compound 6]")
"289 to 291 °C"
>>> result("CCn1cc(C(=O)O)c(=O)c2cc(F)c(N3CCN(C(=O)c4ccc(Cl)cc4)C(C)C3)c(F)c21 (stereo not shown) [Compound 7c]")
"282 to 284 °C"

----------
Tested on: 786-0
Experiment: NCI-60 SRB screen
Format: cell-based
Conditions: Homo sapiens; 786-0, 10^–5 Molar; read-out: Percent growth inhibition
Experimental: All newly synthesized compounds were selected and screened for anticancer activity against 60 human cancer cell lines representing 9 types of tumors including leukemia, melanoma, lung, colon, CNS, ovarian, renal, prostate, and breast cancers at the National Cancer Institute (NCI), Bethesda, USA. Screening was performed utilizing a single dose (10^−5 M concentration) and cells were incubated for 48 h. The end point was determined using sulforhodamine B (SRB) dye. […]
We begin with a simple list: items and their reported inhibition at 10 µM.
PROPERTY_LABEL: inhibition at 10 µM

>>> result("CCn1cc(C(=O)O)c(=O)c2cc(F)c(N3CCN(CC(=O)Nc4ccc(OC)cc4)C(C)C3)c(F)c21 (centres unmarked)")
"4.78%"
>>> result("CCn1cc(C(=O)NN=Cc2cccnc2)c(=O)c2cc(F)c(N3CCNC(C)C3)c(F)c21 (centres unmarked)")
"54.1%"
>>> result("CCn1cc(C(=O)O)c(=O)c2cc(F)c(N3CCN(C(=O)c4ccc(Br)cc4)C(C)C3)c(F)c21 (centres unmarked)")
"0.58%"
>>> result("CCn1cc(C(=O)O)c(=O)c2cc(F)c(N3CCN(CC(=O)Nc4ccccc4)C(C)C3)c(F)c21 (centres unmarked)")
"7.47%"
>>> result("CCn1cc(C(=O)O)c(=O)c2cc(F)c(N3CCN(C=O)C(C)C3)c(F)c21 (centres unmarked)")
"1.77%"
